# System: ICK
# runConditions: concentration: 1 μM, replicates: in singlicate; n = 1
Please mark t if the recorded %Inh is equal to or greater than 8%, and f if it falls below.

For orientation, consider the following solved cases.
molecule: CN1c2ccc(NCc3ccc(F)cc3)cc2-c2c(cnn2C)S1(=O)=O
system: ICK
className: f
--
molecule: O=C(NOCC1CC1)c1ccc(F)c(F)c1Nc1ccc(I)cc1Cl
system: ICK
className: t
--
molecule: Cc1nnc(-c2ccc3occ(-c4ccc(C(C)O)cc4)c3c2)o1 (centres unmarked)
system: ICK;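 also: KINOMEscan kinase panel screen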
className: f

Input: Say whether NCC(NC(=O)c1cc(-c2cn[nH]c2)c(-c2ccnc3[nH]ccc23)s1)c1ccccc1.O=C(O)C(F)(F)F.O=C(O)C(F)(F)F (centres unmarked) shows %Inh of 8% or more.
Output: f

Input: Say whether CC(=O)Nc1ccc(COc2ccc(Nc3ccnc4cc(-c5ccccn5)ccc34)cc2)cc1.Cl shows %Inh of 8% or more.
Output: f

Input: Say whether COc1ccc(CNC(=O)NC2CCN(c3ccnc(Nc4ccc(OC)cc4)n3)C2)cc1 (centres unmarked) shows %Inh of 8% or more.
Output: f
